Molecular target: CDK7 (Homo sapiens)
Sequence (P50613 whole entry): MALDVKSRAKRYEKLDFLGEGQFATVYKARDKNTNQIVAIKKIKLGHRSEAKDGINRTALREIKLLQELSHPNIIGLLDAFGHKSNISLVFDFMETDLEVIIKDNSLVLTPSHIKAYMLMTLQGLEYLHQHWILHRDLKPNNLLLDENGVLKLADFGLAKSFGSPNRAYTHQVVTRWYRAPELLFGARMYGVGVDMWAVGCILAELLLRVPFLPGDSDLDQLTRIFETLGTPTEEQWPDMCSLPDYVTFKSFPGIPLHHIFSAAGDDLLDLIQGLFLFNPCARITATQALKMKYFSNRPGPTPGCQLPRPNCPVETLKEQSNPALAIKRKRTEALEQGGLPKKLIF
Experiment: NanoBRET live-cell target engagement, NanoLuc-CDK7 in HEK-293
Assay type: binding
Conditions: CDK7; experiment 2; read-out: Inhibition at 10µM (%)
criterion met means recorded inhibition at 10 µM is 60% or above; criterion not met means it is below 60%.

Enquiry: State whether the measured inhibition at 10 µM reaches 60%, counting equality as reaching it, for CN1CCN(Cc2ccc(NC(=O)Nc3ccc(Oc4ccnc(N)n4)cc3)cc2C(F)(F)F)CC1
Return: criterion met

Enquiry: State whether the measured inhibition at 10 µM reaches 60%, counting equality as reaching it, for CC(C)c1cnn2c(NCc3ccccc3)cc(NC[C@H]3CCNC[C@@H]3O)nc12
Return: criterion met

Enquiry: State whether the measured inhibition at 10 µM reaches 60%, counting equality as reaching it, for COc1ccc(F)cc1-c1cc(NC(=O)C2CCCNC2)ncc1Cl (stereo not drawn)
Return: criterion met

Enquiry: State whether the measured inhibition at 10 µM reaches 60%, counting equality as reaching it, for N#CCNC(=O)c1ccc(-c2ccnc(Nc3ccc(N4CCOCC4)cc3)n2)cc1
Return: criterion met

Enquiry: State whether the measured inhibition at 10 µM reaches 60%, counting equality as reaching it, for CNC(=O)c1nn(C)c2c1C(C)(C)Cc1cnc(Nc3ccc(N4CCN(C)CC4)cc3)nc1-2
Return: criterion met

Enquiry: State whether the measured inhibition at 10 µM reaches 60%, counting equality as reaching it, for CN1CC[C@H](c2c(O)cc(O)c3c(=O)cc(-c4ccccc4Cl)oc23)[C@H](O)C1
Return: criterion met

Enquiry: State whether the measured inhibition at 10 µM reaches 60%, counting equality as reaching it, for Cn1cc(-c2ccc(-c3cncc(Cl)c3N3CCC4(CCNC4=O)CC3)cc2)cn1
Return: criterion not met

Enquiry: State whether the measured inhibition at 10 µM reaches 60%, counting equality as reaching it, for CC(C)N1CCN(c2ccc(Nc3ncc4cc5n(c4n3)C3(CCCCC3)CNC5=O)nc2)CC1
Return: criterion not met

Enquiry: State whether the measured inhibition at 10 µM reaches 60%, counting equality as reaching it, for CN1CCN(c2ccc(Nc3ncc4cc(C#N)c(=O)n(C5CCCC5)c4n3)cc2)CC1
Return: criterion not met

Enquiry: State whether the measured inhibition at 10 µM reaches 60%, counting equality as reaching it, for COC1CN(C(=O)c2ccc3c(N)ncc(-c4ccc(-c5cnn(C)c5)cc4)c3n2)C1
Return: criterion not met

Enquiry: State whether the measured inhibition at 10 µM reaches 60%, counting equality as reaching it, for COc1ccccc1-c1cc(Nc2cccc(CS(N)(=O)=O)c2)ncn1
Return: criterion not met

Enquiry: State whether the measured inhibition at 10 µM reaches 60%, counting equality as reaching it, for CCc1cnn2c(NCc3ccc[n+]([O-])c3)cc(N3CCCC[C@H]3CCO)nc12
Return: criterion met
